Catalogue of compounds with associated viability, T/C
system: 292921-168-R-J2-PDC complex spheroid growth; test: Anticancer human tumor 292921-168-R-J2-PDC patient-derived pancreatic carcinoma cell line growth inhibition [AhR]; conditions: second compound 0.1 µM; first compound 3.16 µM; hits give low values;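 also: spheroids exposed to compounds for seven days after three days of growth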

Answered examples (5):
| COMPOUND | TEST_RESULT |
| --- | --- |
| CC1(C)CCC(CN2CCN(c3ccc(C(=O)NS(=O)(=O)c4ccc(NCC5CCOCC5)c([N+](=O)[O-])c4)c(Oc4cnc5[nH]ccc5c4)c3)CC2)=C(c2ccc(Cl)cc2)C1 + Cc1cncc(-c2nc(NCCc3c[nH]c4ccccc34)c3ncn(C(C)C)c3n2)c1 | 99.4% |
| CC1COCCN1c1cc(C2(S(C)(=N)=O)CC2)nc(-c2ccnc3[nH]ccc23)n1 (stereo unspecified) + Cc1cncc(-c2nc(NCCc3c[nH]c4ccccc34)c3ncn(C(C)C)c3n2)c1 | 54.2% |
| COc1ccc([C@@H](O)c2cc(-c3ncnc4cc(N5CCOCC5)ccc34)c(F)cc2Cl)nn1 + Cc1cncc(-c2nc(NCCc3c[nH]c4ccccc34)c3ncn(C(C)C)c3n2)c1 | 39.9% |
| COc1cc(Nc2ncc3c(n2)-c2ccc(Cl)cc2C(c2c(F)cccc2OC)=NC3)ccc1C(=O)O + Cc1cncc(-c2nc(NCCc3c[nH]c4ccccc34)c3ncn(C(C)C)c3n2)c1 | 46.1% |
| Nc1ccccc1NC(=O)c1ccc(CNC(=O)OCc2cccnc2)cc1 + CC(CO)NC(=O)c1cc(-c2ccc(Cl)cc2)nn(-c2cnn(C)c2)c1=O | 25.5% |

The record that follows has no viability, T/C shown yet.
Please supply the value of reported viability, T/C for the item COc1cc(C2c3cc4c(cc3C(OC3OC5COC(C)OC5C(O)C3O)C3COC(=O)C23)OCO4)cc(OC)c1O (stereo unspecified) + Cc1cncc(-c2nc(NCCc3c[nH]c4ccccc34)c3ncn(C(C)C)c3n2)c1 24.2%

// provenance: PubChem BioAssay AID1918994
